The measurements presented in this section are drawn from patent US20200199102A1.

# Target Under Test: Cyclophilin A (Homo sapiens)
# Construct: made in house
# Sequence (P62937 whole entry, species assumed): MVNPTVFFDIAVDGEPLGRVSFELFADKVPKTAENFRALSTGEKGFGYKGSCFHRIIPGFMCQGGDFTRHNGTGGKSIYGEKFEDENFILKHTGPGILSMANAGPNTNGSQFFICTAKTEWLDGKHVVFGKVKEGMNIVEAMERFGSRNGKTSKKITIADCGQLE
# Protocol Summary: AlphaLISA inhibition of binding of biotinylated Cyclosporin A to FLAG tagged Cyclophilin A
# Condition Set: test concentration not given
# Procedure: The binding of compounds of the invention to Cyclophilin A can be determined using the following protocol. […] Add 20 uL of 6 nM Biotinylated CsA working stock to each well of the 96-well plate. […] Protect plate from light until reading on Biotek Synergy2 Plate Reader; Alphalisa 96-well protocol (680 excitation/615 emission).
Where a SMILES comes first, the peptide text is derived from it. [ ]: non-standard residue; d: D form. MeBmt = C/C=C/C[C@@H](C)[C@@H](O)[C@H](NC)C(=O)O; NMeI = CC[C@H](C)[C@H](NC)C(=O)O; NMeL = CN[C@@H](CC(C)C)C(=O)O; Tle = CC(C)(C)[C@H](N)C(=O)O; NMeV = CN[C@H](C(=O)O)C(C)C; NMeA = CN[C@@H](C)C(=O)O; Abu = CC[C@H](N)C(=O)O; Sar = CNCC(=O)O
Reported % inhibition of CsA binding to Cyclophilin A values for the following compounds.
Include the unit right after the number.

Examples with their reported % inhibition of CsA binding to Cyclophilin A follow.
- Compound: "C/C=C/C[C@@H](C)[C@@H](O)[C@H]1C(=O)N[C@@H](CC)C(=O)N(C)CC(=O)N(C)[C@@H](C)C(=O)N[C@@H](CC(C)C)C(=O)N(C)[C@@H](C)C(=O)N[C@@H](C)C(=O)N[C@H](C)C(=O)N(C)[C@@H](CC(C)C)C(=O)N(C)[C@@H](CC(C)C)C(=O)N(C)[C@@H](C(C)C)C(=O)N1C [Compound C10] (cyclo([MeBmt][Abu][Sar][NMeA]L[NMeA]A[dA][NMeL][NMeL][NMeV]))"
  Measured Result: "99.44%"
- Compound: "C/C=C/C[C@@H](C)[C@@H](O)[C@H]1C(=O)N[C@@H](CC)C(=O)N(C)CC(=O)N(C)[C@@H]([C@@H](C)CC)C(=O)N[C@@H](C(C)(C)C)C(=O)N(C)[C@@H](C)C(=O)N[C@@H](CC(C)C)C(=O)N[C@H](C)C(=O)N(C)[C@@H](CC(C)C)C(=O)N(C)[C@@H](CC(C)C)C(=O)N(C)[C@@H](C(C)C)C(=O)N1C [Compound C69] (cyclo([MeBmt][Abu][Sar][NMeI][Tle][NMeA]L[dA][NMeL][NMeL][NMeV]))"
  Measured Result: "99.97%"

// query For the compound shown here, C/C=C/C[C@@H](C)[C@@H](O)[C@H]1C(=O)N[C@@H](CC)C(=O)N(C)CC(=O)N(C)[C@@H](C(C)C)C(=O)N[C@@H](C(C)C)C(=O)N(C)[C@@H](C)C(=O)N[C@@H](CC(C)C)C(=O)N[C@H](C)C(=O)N(C)[C@@H](CC(C)C)C(=O)N(C)[C@@H](CC(C)C)C(=O)N(C)[C@@H](C(C)C)C(=O)N1C [Compound C89] (cyclo([MeBmt][Abu][Sar][NMeV]V[NMeA]L[dA][NMeL][NMeL][NMeV])) , give the reported % inhibition of CsA binding to Cyclophilin A.
// result 96.90%
